Tested on: MYB
Experiment: RT-qPCR splicing assay, MYB AJ/CJ mRNA
Type: cell-based
Details: Homo sapiens, increase in alternative junction mRNA, A673 or K562 cells, 24 hours
measuredMetric: AC50

Recorded AC50 of CN(c1ccc2c(n1)CCOc1cc(-c3cn[nH]c3)ccc1-2)[C@@H]1C[C@H]2CC[C@@H](C1)N2 [Compound 127] , please. > 10000 nM

I'd like to know its AC50. The compound in question is CC1(C)CC(Oc2ccc3c(n2)OCc2cc(-n4cccn4)ccc2-3)CC(C)(C)N1 [Compound 171] 1000 to 10000 nM

Return reported AC50; argument: CN(c1ccc2c(n1)OCc1cc(-c3cn[nH]c3)ccc1-2)C1CC2CC(F)(F)C(C1)N2 (stereo not shown) [Compound 248] 1000 to 10000 nM

Fill blank: measured AC50 of the compound CN(c1ccc2c(n1)OCc1cc(-n3cccn3)ccc1-2)C1CCNCC1 [Compound 175] is ____. > 10000 nM

Consider the compound shown here: COc1cc(-c2ccc3c(c2)COc2nc(N4CC[C@@H](NC(C)(C)C)C4)ncc2-3)cnn1 [Compound 278] What is its recorded AC50? 100 to 1000 nM

What AC50 value was documented for this compound, FC1(F)CC2CC(Nc3ccc4c(n3)OCc3cc(-c5cn[nH]c5)ccc3-4)CC1N2 (stereo not shown) [Compound 241] ? 1000 to 10000 nM

Item under review: CN1CCC12CCN(c1ccc3c(n1)OCc1cc(-c4cn[nH]c4)ccc1-3)C2 (stereo not shown) [Compound 220] . Reported AC50? 100 to 1000 nM

Which AC50 value is on record for Cc1cnc(-c2ccc3c(c2)COc2nc(N(C)[C@@H]4C[C@H]5CC[C@@H](C4)N5)ccc2-3)o1 [Compound 206] ? 1000 to 10000 nM

* * *

Test system: HTT
Assay: RT-qPCR splicing assay, HTT AJ/CJ mRNA
Type: cell-based, human
Settings: Homo sapiens, 24 h, decrease in canonical junction mRNA, A673 or K562 cells
pIC50: −log10 of the molar value.
measuredMetric: pIC50

Example results:
1. COc1cc(-c2ccc3c(c2)COc2nc(N4CC[C@@H](NC(C)(C)C)C4)ccc2-3)cnn1 | > 7.00
2. CN(c1ncc2c(n1)OCc1cc(-c3cnnc(O)c3)ccc1-2)C1CC(C)(C)NC(C)(C)C1 | 6.00 to 7.00
3. c1cnn(-c2ccc3c(c2)COc2nc(N[C@@H]4C[C@H]5CCC[C@@H](C4)N5)ccc2-3)c1 | > 7.00
4. CN(c1ccc2c(n1)COc1cc(-c3cn[nH]c3)ccc1-2)[C@@H]1C[C@H]2CC[C@@H](C1)N2 | 6.00 to 7.00

Any idea what its pIC50 is? The compound is CCc1cc(-c2ccc3c(c2)COc2nc(N4CCC(NC(C)(C)C)C4)ccc2-3)cnn1 (stereo not shown) < 5.00

Sample c1cc2c(cc1-c1cn[nH]c1)COc1nc(O[C@@H]3C[C@H]4CC[C@@H](C3)N4)ccc1-2 — what was its pIC50? > 7.00

Which pIC50 is listed for COc1cnnc(-c2ccc3c(c2)COc2nc(N4CCC(NC(C)(C)C)C4)ccc2-3)c1 (stereo not shown) ? < 5.00

* * *

Tested on: HTT
Assay: RT-qPCR splicing assay, HTT AJ/CJ mRNA
Format: cell-based, human
Details: Homo sapiens, 24 h, decrease in canonical junction mRNA, A673 or K562 cells
pIC50: −log10 of the molar value.
measuredMetric: pIC50

Answered cases to consult:
1) Cc1[nH]ncc1-c1ccc2c(c1)COc1nc(N(C)[C@@H]3C[C@H]4CC[C@@H](C3)N4)ccc1-2 | 6.00 to 7.00
2) CNC1CCN(c2ccc3c(n2)OCc2cc(-c4cnnc(OC)c4)ccc2-3)CC1 | 5.00 to 6.00
3) COc1cc(-c2ccc3c(c2)COc2nc(N4CCC(N(C)C5CC5)C4)ccc2-3)cnn1 (stereo not shown) | 5.00 to 6.00

We now examine a further compound.
Quick one: pIC50 for c1cnn(-c2ccc3c(c2)OCCc2cc(N[C@@H]4C[C@H]5CC[C@@H](C4)N5)ccc2-3)c1 ? < 5.00

meta.source: patent US20240400584A1
